FYI, the data here is from ChEMBL document CHEMBL4339188.

assay: in vitro; conditions: mouse, mouse neuronal cells
Description: Toxicity in mouse neuronal cells assessed as reduction in cell viability incubated for 72 hrs by MTT assay
Rule: IC50 at 72 h below 4 µM gives Fulfilled, anything at or above gives Not fulfilled.

1) Cl.O=C(O)c1ccc(-n2cc(COc3ccc(/C=N/Nc4c5c(nc6ccccc46)CCCC5)cc3)nn2)cc1    Fulfilled

Asked: I'd appreciate it if you could check whether Brc1ccc(-n2cc(COc3ccc(/C=N/Nc4c5c(nc6ccccc46)CCCC5)cc3)nn2)cc1.Cl has IC50 at 72 h smaller than 4 µM.
Given back: Not fulfilled

Asked: Consider S=C(NNc1c2c(nc3ccccc13)CCCC2)Nc1ccc(Cl)cc1 . Does its IC50 at 72 h lie strictly below 4 µM?
Given back: Not fulfilled

Asked: Strictly below 4 µM in IC50 at 72 h? C(=N\Nc1c2c(nc3ccccc13)CCCC2)/c1ccc(OCc2cn(Cc3ccccc3)nn2)cc1
Given back: Not fulfilled

Asked: Strictly below 4 µM in IC50 at 72 h? C=CCNC(=S)NNc1c2c(nc3ccccc13)CCCC2
Given back: Not fulfilled

Asked: Consider the compound Cl.Clc1ccc(-n2cc(COc3ccc(/C=N/Nc4c5c(nc6ccccc46)CCCC5)cc3)nn2)cc1 . Is its IC50 at 72 h strictly less than 4 µM?
Given back: Not fulfilled

Asked: # TODO verify IC50 at 72 h < 4 µM strictly for this compound: NS(=O)(=O)c1ccc(NC(=S)NNc2c3c(nc4ccccc24)CCCC3)cc1
Given back: Fulfilled
